test: Particle size distribution (Sympatec HELOS, dry powder dispersion); format: physicochemical; design: dose or concentration left out as unconfirmed; details: crystalline product as isolated, no milling; listed as Ex. 1; the values are: particle size D90
Test Readout: particle size D90 (µm)
Answer in µm, number only, no unit symbol.

**Query** Quick one: particle size D90 for `CN(C)c1nc(Cc2ccc(NC(=O)c3ccc(C(F)(F)F)cc3)cc2)nc(N(C)C)c1CC(=O)O` ?
**Result** 35.5
